- test target: canine CD3 on canine T cells (canine PBMC) (canine, UniProt P27597 22-202)
- Sequence (P27597 22-202 limits assumed, chain 1 of 3): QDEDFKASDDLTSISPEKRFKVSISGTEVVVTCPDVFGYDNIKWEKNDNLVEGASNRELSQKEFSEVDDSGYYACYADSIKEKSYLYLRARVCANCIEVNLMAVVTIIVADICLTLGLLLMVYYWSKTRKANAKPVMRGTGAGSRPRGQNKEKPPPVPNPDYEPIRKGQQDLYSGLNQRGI
- Sequence (chain, as listed by the source limits assumed, chain 2 of 3): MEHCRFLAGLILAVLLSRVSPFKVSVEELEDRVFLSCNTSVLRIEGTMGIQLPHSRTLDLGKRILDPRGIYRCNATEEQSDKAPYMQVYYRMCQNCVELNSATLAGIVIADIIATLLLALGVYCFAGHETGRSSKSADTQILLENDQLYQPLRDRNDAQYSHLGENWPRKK
- Sequence (chain, as listed by the source limits assumed, chain 3 of 3): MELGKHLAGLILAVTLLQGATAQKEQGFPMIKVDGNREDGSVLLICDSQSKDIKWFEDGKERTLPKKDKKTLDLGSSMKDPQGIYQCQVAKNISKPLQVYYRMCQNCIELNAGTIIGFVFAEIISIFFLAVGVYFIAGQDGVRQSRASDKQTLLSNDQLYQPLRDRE
- assay name: cell-based or functional assay
Below, each of the binders is paired with its reported CD25 Activation, Day 6, PB value.
Give a plain numeric answer without units written out.

Check out these entries, answers already filled in.
{"columns": ["binder", "measure", "readout number"],
 "data": [
  ["PMX168 (monospecific anti-canine CD3, canine IgG-B effector function deficient Fc) (antibody, V domains shown) VH: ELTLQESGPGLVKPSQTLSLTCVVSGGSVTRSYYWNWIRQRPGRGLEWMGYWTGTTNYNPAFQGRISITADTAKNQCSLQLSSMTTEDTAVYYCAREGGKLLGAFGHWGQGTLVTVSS VL: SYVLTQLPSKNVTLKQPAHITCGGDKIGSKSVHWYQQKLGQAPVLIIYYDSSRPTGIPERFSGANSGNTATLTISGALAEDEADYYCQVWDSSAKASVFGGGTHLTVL", "CD25 Activation, Day 6, PB", 13.4],
  ["PMX176 (monospecific anti-canine CD3, canine IgG-B effector function deficient Fc) (antibody, V domains shown) VH: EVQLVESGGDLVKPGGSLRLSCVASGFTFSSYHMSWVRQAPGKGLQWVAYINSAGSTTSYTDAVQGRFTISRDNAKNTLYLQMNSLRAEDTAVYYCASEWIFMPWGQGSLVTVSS VL: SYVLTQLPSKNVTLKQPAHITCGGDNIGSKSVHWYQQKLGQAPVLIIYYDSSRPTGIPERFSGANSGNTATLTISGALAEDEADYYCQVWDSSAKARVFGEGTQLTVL", "CD25 Activation, Day 6, PB", 9.61],
  ["PMX175 (monospecific anti-canine CD3, canine IgG-B effector function deficient Fc) (antibody, V domains shown) VH: ELTLQESGPGLVKPSQTLSLTCVVSGGSVTSTYYWNWIRQRPGRGLEWMGYWTGTTNYNPAFQGRISITADTAKNQFSLQLSSMTTEDTAVYYCAREDLVTVGSGAFNYWGQGTLVTVSS VL: SYVLTQLPSKNVTLKQPAHITCGGDNIGSKSVHWYQQKLGQAPVLIIYYDSSRPTGIPERFSGANSGNTATLTISGALAEDEADYYCQVWDSSATWVFGEGTQLTVL", "CD25 Activation, Day 6, PB", 8.76],
  ["PMX157 (monospecific anti-canine CD3, canine IgG-B effector function deficient Fc) (antibody, V domains shown) VH: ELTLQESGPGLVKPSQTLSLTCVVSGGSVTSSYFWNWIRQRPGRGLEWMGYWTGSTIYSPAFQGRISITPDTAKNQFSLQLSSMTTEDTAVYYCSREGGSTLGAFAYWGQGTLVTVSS VL: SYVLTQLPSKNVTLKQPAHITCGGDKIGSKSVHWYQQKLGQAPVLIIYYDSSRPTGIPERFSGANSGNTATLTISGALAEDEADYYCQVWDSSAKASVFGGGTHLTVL", "CD25 Activation, Day 6, PB", 11.6],
  ["PMX195 (monospecific anti-canine CD3, canine IgG-B effector function deficient Fc) (antibody, V domains shown) VH: EVQLVESGGDLVKPAGSLRLSCMASGFTFSSYSMSWVRQAPEKGLQLVAGINGDGSTTYYTDAVKGRFTISRDNAKNTVYLQMNNLRVEDSAMYYCAKGAGTGDYWGQGTLVTVSS VL: SYELTQPPSLNVTLRETAHITCGGDRIGSRYVQWIQQNPGQAPVVVIYKDSNRPTGIPERFSGANSGNTATLTISGALAEDEADYYCQVGDSGNWVFGGGTQLTVL", "CD25 Activation, Day 6, PB", 16.8],
  ["PMX163 (monospecific anti-canine CD3, canine IgG-B effector function deficient Fc) (antibody, V domains shown) VH: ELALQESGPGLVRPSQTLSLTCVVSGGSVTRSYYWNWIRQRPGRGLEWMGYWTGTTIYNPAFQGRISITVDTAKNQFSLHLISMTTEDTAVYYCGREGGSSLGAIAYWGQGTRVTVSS VL: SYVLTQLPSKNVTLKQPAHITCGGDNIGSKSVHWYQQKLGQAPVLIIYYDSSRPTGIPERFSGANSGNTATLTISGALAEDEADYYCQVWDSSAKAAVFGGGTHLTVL", "CD25 Activation, Day 6, PB", 18.8]
]}

// moving on: another record for CD25 Activation, Day 6, PB
[in] Hello, please tell me recorded CD25 Activation, Day 6, PB for this one: PMX167 (monospecific anti-canine CD3, canine IgG-B effector function deficient Fc) (antibody, V domains shown) VH: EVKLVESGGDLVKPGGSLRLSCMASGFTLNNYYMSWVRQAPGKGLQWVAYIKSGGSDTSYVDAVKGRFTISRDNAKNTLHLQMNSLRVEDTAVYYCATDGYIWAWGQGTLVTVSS VL: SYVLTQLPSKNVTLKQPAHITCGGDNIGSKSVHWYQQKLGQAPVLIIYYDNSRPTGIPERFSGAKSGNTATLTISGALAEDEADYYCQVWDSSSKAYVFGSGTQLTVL
[out] 4.93

Source of measurements: patent US20240209086A1
